Biological target: T1, active BoNT/G holotoxin (Clostridium botulinum, UniProt Q60393 2-1297)
T1 sequence: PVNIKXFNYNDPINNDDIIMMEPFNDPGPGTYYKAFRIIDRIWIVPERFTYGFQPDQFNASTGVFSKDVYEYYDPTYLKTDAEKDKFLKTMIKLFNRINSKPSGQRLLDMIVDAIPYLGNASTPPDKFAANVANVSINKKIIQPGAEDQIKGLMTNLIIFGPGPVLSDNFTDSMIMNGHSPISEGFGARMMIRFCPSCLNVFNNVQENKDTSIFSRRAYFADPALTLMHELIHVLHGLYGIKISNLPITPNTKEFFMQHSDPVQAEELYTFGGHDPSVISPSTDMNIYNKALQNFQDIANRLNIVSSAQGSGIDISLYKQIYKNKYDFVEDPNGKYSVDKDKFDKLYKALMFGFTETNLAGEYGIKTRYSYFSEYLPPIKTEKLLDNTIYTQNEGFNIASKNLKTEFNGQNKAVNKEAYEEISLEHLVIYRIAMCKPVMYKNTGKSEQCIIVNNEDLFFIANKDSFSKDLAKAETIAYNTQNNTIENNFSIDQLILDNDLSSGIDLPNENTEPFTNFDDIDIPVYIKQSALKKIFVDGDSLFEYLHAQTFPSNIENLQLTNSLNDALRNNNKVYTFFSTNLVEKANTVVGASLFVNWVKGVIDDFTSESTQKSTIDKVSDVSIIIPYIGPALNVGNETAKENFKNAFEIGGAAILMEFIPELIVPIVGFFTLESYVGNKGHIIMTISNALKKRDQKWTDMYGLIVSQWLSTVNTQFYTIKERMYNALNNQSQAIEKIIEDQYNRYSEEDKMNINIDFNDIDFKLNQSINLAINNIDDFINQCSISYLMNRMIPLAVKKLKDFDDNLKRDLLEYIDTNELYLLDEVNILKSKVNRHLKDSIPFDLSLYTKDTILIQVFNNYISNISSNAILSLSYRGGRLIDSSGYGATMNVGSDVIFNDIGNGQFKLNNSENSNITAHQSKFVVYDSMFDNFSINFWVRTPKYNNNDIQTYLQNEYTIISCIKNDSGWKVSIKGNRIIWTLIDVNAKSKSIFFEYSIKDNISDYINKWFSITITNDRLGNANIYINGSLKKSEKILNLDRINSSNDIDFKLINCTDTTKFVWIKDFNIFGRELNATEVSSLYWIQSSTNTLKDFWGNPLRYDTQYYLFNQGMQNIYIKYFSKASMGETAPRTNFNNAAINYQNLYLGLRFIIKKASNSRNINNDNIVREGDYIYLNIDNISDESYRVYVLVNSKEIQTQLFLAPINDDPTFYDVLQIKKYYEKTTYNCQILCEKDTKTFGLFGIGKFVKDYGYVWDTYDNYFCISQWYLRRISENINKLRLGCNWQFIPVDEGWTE
Assay: KinExA, IgG
Below: a set of entries, each annotated with reported pKd.
In plain terms, pKd is the concentration in mol/L turned into minus its base-10 logarithm.

Reported pKd, binder 6G7.1 IgG (antibody, V domains shown) VH: DVQLQESGPELVKPGASVKVSCKASDYSFTDYNIYWVKQSHGKSLEWIGYIDPYNGGTSYNQKFKGKATLTVDKSSSTAFMYLNSLTSEDSAVYYCALYGYDPDYIDYWGQGTTLTVSS VL: QIVLTQSPAIMSASPGEKVTITCSASSSVSYLHWFQQKPGTSPKLWIYSTSNLASGVPARFSGSGSGTSYSLTISRMEAEDAATYYCQQRSSYPYTFGGGTKLEIKA : ____
10.58

Further cases:
Fill blank: measured pKd of the binder 6G9 IgG (antibody, V domains shown) VH: EVQLQQSGDDLVKPGASVKMSCKASGYTFTSYWMHWVKQRPGQGLEWIGYINPSTGYTEYNQKFKDKATLTADKSSSTAYMQLSSLTSEDSAVYYCARGGNYVDYWGQGTTLTVSS VL: EIVLTQSPAIMSASPGEKVTISCSASSSVSYMYWYQQKPGSSPKPWIYRTSNLASGVPARFSGSGSGTSYSLTISSMEAEDAATYYCQQWSSNPYTFGGGTKLEIKR is ____.
8.80

Item Hu6G9.1 IgG (antibody, V domains shown) VH: QVQLVQSGAEVKKPGASVKMSCKASGYTFTSYWMHWVRQAPGQGLEWVGYINPSTGYTEYNQKFKDRATLTADKSTSTAYMELRSLRSDDTAVYYCARGGNYVDYWGQGTTLTVSS VL: DIQMTQSPSTLSASVGERVTITCRASHGISSWLAWYQQKPGKAPKRLIYAVSTLQTGVPSRFSDSGSGTDLTLTINSLQPEDFATYYCQDLNSYPLSFGGGTKVEIKR has what recorded pKd?
10.56
